assay: Primary qHTS for inhibitors of nuclear receptor binding SET domain protein 2 (NSD2) in an isogenic RCH-ACV NSD2 p.E1099K mutant (9B) (AID 1645876); conditions: RCH-ACV (leukaemia line) NSD2 E1099K (9B) viability, CellTiter-Glo, 72 h; series mostly up to 44.9 µM; further: potency means the concentration at half of the fitted maximal effect; nearly all actives have a fitted effect of over 70% in size
Inconclusive results are not listed. The source made the active and inactive calls. The call rests on the fitted dose curve; in most records, active means well fitted inhibition curve with a large enough effect; inconclusive means small, poorly fitted or top-dose-only effect; inactive means flat fitted curve, though single readings scatter.
Each record here notes measured Potency.

COc1ccc(NS(=O)(=O)c2sc3ccc(Cl)cc3c2C)cc1N1CCNCC1    20.5 µM (active)
CC[C@H](C)[C@H]1O[C@]2(CC[C@@H]1C)C[C@@H]1C[C@@H](C/C=C(\C)[C@@H](O[C@H]3C[C@H](OC)[C@@H](O[C@H]4C[C@H](OC)[C@@H](O)[C@H](C)O4)[C@H](C)O3)[C@@H](C)/C=C/C=C3\CO[C@@H]4[C@H](O)C(C)=C[C@@H](C(=O)O1)[C@]34O)O2    20.5 µM (active)

Req: Find the measured Potency of CN(C)CCNC(=O)c1cccn2c(=O)c3cc4ccccc4cc3nc12 and report it.
Resp: 0.668 µM (active)

###

system: Zika virus NS2B-NS3 protease (linked); experiment: 384 well plate NINDS AMC confirmatory qHTS for Zika virus inhibitors (AID 1347163); conditions: Recombinant NS2B-NS3 protease, Ac-VKTGKR-AMC fluorescence; series mostly up to 1 mM; further: potency means the concentration at half of the fitted maximal effect; nearly all actives have a fitted effect of over 50% in size
Inconclusive results are not listed. Calls of active or inactive are those of the source. The call rests on the fitted dose curve; in most records, active means well fitted inhibition curve with a large enough effect; inconclusive means small, poorly fitted or top-dose-only effect; inactive means no such curve, though single readings can be large or run the other way.
recordedEndpoint: Potency

Known results for molecules:
Nc1cc(N)c(N=Nc2ccc(S(=O)(=O)Nc3nccs3)cc2)cc1N=Nc1ccc(S(=O)(=O)Nc2nccs2)cc1    63.1 µM (active)
CN1CCN(C(=O)CCN2C(=O)/C(=C\c3ccccc3F)SC2=S)CC1    251 µM (active)

Consider now this further molecule.
Req: Find the measured Potency of Cc1cccc(C)c1-n1c(SCC(=O)Nc2ccc(C(=O)O)cc2)nnc1-c1cccc([S+](=O)([O-])N2CCCC2)c1 and report it.
Resp: 70.8 µM (active)

###

assay: qHTS for Inhibitors of Plasmodium falciparum (HB3) proliferation (AID 504318);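 further: 0% = DMSO vehicle and -100% = artemisinin control; nearly all actives have a fitted effect of over 60% in size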; settings: P. falciparum HB3 in erythrocytes, SYBR Green DNA, 72 h; series mostly up to 7.21 µM
Records with an inconclusive call do not appear. Active and inactive are the calls of the source. The call rests on the fitted dose curve; in most records, active means well fitted inhibition curve with a large enough effect; inconclusive means small, poorly fitted or top-dose-only effect; inactive means flat fitted curve, though single readings scatter.
recordedEndpoint: outcome

Known results for molecules:
CCCCS(=O)(=O)N1C2=NC3=C(C(=O)N(CCOC)C3=O)C3N(C)c4ccccc4[C@]23C[C@H]1CO (some centres not stated)    inactive
CC1(OC(=O)c2ccc(Cl)nc2)C(=O)Cc2cc(-c3ccsc3)ncc2C1=O (configuration not stated)    inactive
COCCN1C(=O)CC[C@@]23C1=NC(C(=O)OC)=C(C(=O)OC)[C@@H]2N(C)c1ccccc13    inactive
c1ccc(-c2nc(-c3ccccc3)c(NC3CCCCC3)o2)cc1    inactive
C(=Cc1nc(-c2ccccc2)oc1Nc1ccc2ccccc2c1)c1ccccc1    inactive
CC(=O)C1=C(C)N(CCC=Cc2ccccc2)C(=O)NC1c1ccccc1 (configuration not stated)    inactive

Consider now this further molecule.
Req: Find the measured outcome of COC(=O)N[C@@H](c1cccc(F)c1)C(C(C)=O)C(=O)OC (some centres not stated) and report it.
Resp: inactive

###

Assay: P-glycoprotein substrates identified in KB-8-5-11 adenocarcinoma cell line, qHTS therapeutic library screen (AID 1346987); further: nearly all actives have a fitted effect of over 65% in size
Settings: KB-8-5-11 (P-gp overexpressing) viability, CellTiter-Glo, 72 h; series mostly up to 44.5 µM
Protocol: The ATP-binding cassette transporters P-glycoprotein (P-gp) is known to limit brain penetration of many chemotherapy drugs. […] All cell lines were plated into 1536-well plates at 500 cells/well in 5 uL media. […] CellTiter-Glo reagent (Promega) was dispensed into the wells, incubated for 5 min and luminescence was read on a ViewLux instrument (Perkin-Elmer). […]
Results filed as inconclusive are left out. Active and inactive are the calls of the source. Calls follow the shape of the dose curve; as a rule, active = well fitted inhibition curve with a large enough effect; inconclusive = small, poorly fitted or top-dose-only effect; inactive = flat fitted curve, though single readings scatter.
Please answer using one outcome listed in active, inactive

Please review the entries below; each comes with its answer.
O=C(c1ccc(-c2ccc(Cl)cc2)o1)N(Cc1ccccn1)c1ccc(N2CCNCC2)cc1    inactive
Oc1cc(CNC(=S)/C=C/c2cc(O)c(O)c(Br)c2)cc(O)c1O    active
O=C1CCCC2=C1C(c1ccccc1Br)N=C(Nc1nc3ccccc3o1)N2 (stereo not drawn)    inactive
Cn1nccc1Nc1nccc(-c2ccn([C@H](CO)c3ccc(Cl)c(F)c3)c(=O)c2)n1    inactive
CN(C)Cc1cccc(N=C(c2ccccc2)c2c(O)[nH]c3cc(C(N)=O)ccc23)c1    inactive

Req: Record lookup: outcome of this test for COc1c(-c2ccc3cc(NS(C)(=O)=O)ccc3c2)cc(-n2ccc(=O)[nH]c2=O)cc1C(C)(C)C ?
Resp: inactive

Req: Record lookup: outcome of this test for CN1CCC(c2c(O)cc(O)c3c(=O)cc(-c4ccccc4Cl)oc23)C(O)C1 (stereo not drawn) ?
Resp: active

Req: Record lookup: outcome of this test for O=C1NCCSc2c1sc1ccc(O)cc21 ?
Resp: active

Req: Record lookup: outcome of this test for C[C@H]1COCCN1c1cc(C2(S(=O)(=O)C3CC3)CC2)nc(-c2ccc(NC(=S)NCCO)cc2)n1 ?
Resp: active

Req: Record lookup: outcome of this test for Cc1cn(C2OC(CO)C(O)C2F)c(=O)[nH]c1=O (stereo not drawn) ?
Resp: inactive

Req: Record lookup: outcome of this test for CCOc1cccc2c1OC(c1ccc(F)cc1)C([N+](=O)[O-])=C2 (stereo not drawn) ?
Resp: active

###

assay: Confirmatory screen NINDS Rhodamine qHTS for Zika virus inhibitors (AID 1347161); conditions: purified enzyme assay, Rhodamine110 substrate fluorescence, 15 min; series mostly up to 114 µM; further: nearly all actives have a fitted effect of over 60% in size; further: potency means the concentration at half of the fitted maximal effect
Records with an inconclusive call do not appear. Activity calls are given as the source filed them. The call rests on the fitted dose curve; in most records, active means well fitted inhibition curve with a large enough effect; inconclusive means small, poorly fitted or top-dose-only effect; inactive means no such curve, though single readings can be large or run the other way. Positions of bridges follow the written chain, without caps; N, C: chain ends. Non-standard residues stand in square brackets, D forms with d. Residues, ends and D or L forms follow the SMILES beside them. ξ: configuration not given here. *: point of attachment. ξDab(CH2SO3H) = NC(CCNCS(=O)(=O)O)C(=O)O; Octanoyl(6-Me) = CCC(C)CCCCC(=O)*; Dab = NCC[CH](N)C(=O)O
recordedEndpoint: Potency

N#CC(C#N)=C(N)/C(C#N)=C/c1cc(O)c(O)c(O)c1    31.6 µM (active)
O=C(Nc1ccccc1)c1ccc2c(O)c(S(=O)(=O)c3ccc(Cl)cc3)c(=O)[nH]c2c1    14.1 µM (active)
O=C(OCC#CCSc1nnc(-c2cccc3ccccc23)o1)c1ccc(OC(F)F)cc1    inactive
O=C(Nc1c(C(=O)O)oc2ccccc12)c1ccc(C(F)(F)F)cc1    25.1 µM (active)
CCC(C)CCCCC(=O)NC(CCNCS(=O)(=O)O)C(=O)NC(C(=O)NC(CCNCS(=O)(=O)O)C(=O)NC1CCNC(=O)C(C(C)O)NC(=O)C(CCNCS(=O)(=O)O)NC(=O)C(CCNCS(=O)(=O)O)NC(=O)C(CC(C)C)NC(=O)C(CC(C)C)NC(=O)C(CCNCS(=O)(=O)O)NC1=O)C(C)O (stereo not drawn) ({Octanoyl(6-Me)}-[ξDab(CH2SO3H)]T[ξDab(CH2SO3H)][Dab][ξDab(CH2SO3H)]LL[ξDab(CH2SO3H)][ξDab(CH2SO3H)]T; lactam 4-C; configuration not given here)    12.6 µM (active)

Req: Find the measured Potency of O=C(Nc1ccc(C(=O)OCc2cc(=O)n3c4c(sc3n2)CCCC4)cc1)c1ccccc1 and report it.
Resp: inactive

Req: Find the measured Potency of O=S(=O)(Nc1ccc(O)c(NS(=O)(=O)c2ccccc2)c1)c1ccccc1 and report it.
Resp: inactive

Req: Find the measured Potency of Cc1ccc(NC(=O)CSc2ncccc2C(=O)Oc2ccccc2Cl)cc1Cl and report it.
Resp: inactive

###

assay: J3T Cancer Cell Toxicity qHTS against the NCATS CANVASS Library (AID 1347371); settings: J3T dog glioma viability, ATP luminescence, 72 h; series mostly up to 46.1 µM
Inconclusive results are not listed. Activity calls are given as the source filed them. Calls come from the whole dose curve; as a rule, active = well fitted cell-killing curve with a large enough effect; inconclusive = small, poorly fitted or top-dose-only effect; inactive = flat fitted curve, though single readings scatter.
Please answer using one outcome listed in label 1 = active, label 0 = inactive

Req: Record lookup: outcome of this test for C[C@@]12CCC[C@@](C)(C(=O)O)[C@H]1CC[C@]13C[C@H]4C[C@H](O[C@@]4(C)C1)[C@H]32 ?
Resp: label 0

Req: Record lookup: outcome of this test for CN1C(=O)[C@]23SS[C@@]1(C)C(=O)N2[C@H]1Nc2ccccc2[C@]1(c1c[nH]c2ccccc12)[C@@H]3O ?
Resp: label 1

Req: Record lookup: outcome of this test for C[C@@]12C[C@@H](C[C@H]3C(=O)O[C@@H](c4ccoc4)[C@H](OC(=O)c4ccccc4)[C@@H]31)OC2=O ?
Resp: label 0

Req: Record lookup: outcome of this test for C/C=C/C(=O)[C@@H](C)C1=CC(=O)C2=C(O[C@@]34CC[C@H](O)C(C)(C)[C@@H]3CC[C@H](C)[C@@]4(C)C2)C1=O ?
Resp: label 1

Req: Record lookup: outcome of this test for O=C1C[C@@H](c2ccc(O)c(-c3c(O)cc(O)c4c3O[C@H](c3ccc(O)cc3)CC4=O)c2)Oc2cc(O)cc(O)c21 ?
Resp: label 0
